Tested on: Vero E6 infected with SARS-CoV-2
Test: inhibition of SARS-CoV-2 cytopathic effect; higher = more antiviral protection, active = above 15
Details: 100 nM; 48 h
measurement_kind: inhibition of SARS-CoV-2 cytopathic effect (%)

compound="OCc1cncc(F)c1 [5-fluoro-3-pyridyl-methanol]" assay_target="Vero E6 infected with SARS-CoV-2" assay_result=-10.8
compound="N#Cc1ccc(Oc2ccc3c(c2)COB3O)cc1 [crisaborole]" assay_target="Vero E6 infected with SARS-CoV-2" assay_result=1.46
compound="C[C@@H]1CN(c2c(F)c(N)c3c(=O)c(C(=O)O)cn(C4CC4)c3c2F)C[C@H](C)N1 [sparfloxacin]" assay_target="Vero E6 infected with SARS-CoV-2" assay_result=0.77
compound="O=C(NC(=O)c1c(F)cccc1F)Nc1cc(Cl)c(OC(F)(F)C(F)C(F)(F)F)cc1Cl (stereo not drawn) [lufenuron]" assay_target="Vero E6 infected with SARS-CoV-2" assay_result=-1.16
compound="CN(c1nccc(=O)[nH]1)C1CCN(c2nc3ccccc3n2Cc2ccc(F)cc2)CC1 [mizolastine]" assay_target="Vero E6 infected with SARS-CoV-2" assay_result=0.47
compound="Cc1noc(NS(=O)(=O)c2ccc(N)cc2)c1C [sulfafurazole]" assay_target="Vero E6 infected with SARS-CoV-2" assay_result=0.89
compound=O=C(/C=C/c1ccc2ccc(C(F)(F)F)cc2n1)c1ccncc1 assay_target="Vero E6 infected with SARS-CoV-2" assay_result=-3.01
compound="COc1ccc2c(O[C@@H]3C[C@H]4C(=O)N[C@]5(C(=O)NS(=O)(=O)C6CC6)C[C@H]5/C=C\\CCCCN(C)C(=O)[C@@H]4C3)cc(-c3nc(C(C)C)cs3)nc2c1C [simeprevir]" assay_target="Vero E6 infected with SARS-CoV-2" assay_result=2.68
